Molecular target: Progesterone receptor (Homo sapiens)
Test: Relative binding affinity for human progesterone receptor in MCF-7 cell cytosols compared to Org 2058
Format: cell-based
Hi there, I'd appreciate the recorded Affinity for every entry that follows.
Only the number, expressed in %, is required.

input: Quick one: Affinity for CC#C[C@]1(O)CC[C@H]2[C@@H]3CCC4=CC(=O)CCC4=C3[C@@H](c3ccc(N(C)C)cc3)C[C@@]21C ?
output: 36

input: If you can, please state the reported Affinity value of CN(C)c1ccc([C@H]2C[C@@]3(C)C(CC[C@@]3(O)C#Cc3ccccc3)C3CCC4=CC(=O)CCC4=C32)cc1 (some centres undefined) .
output: 16

input: Return reported Affinity; argument: CN(C)c1ccc(/C=C/[C@]2(O)CCC3C4CCC5=CC(=O)CCC5=C4[C@@H](c4ccc(N(C)C)cc4)C[C@@]32C)cc1 (some centres undefined)
output: 6.1

input: Item under review: CN(C)c1ccc([C@H]2C[C@@]3(C)C(CC[C@@]3(O)C#Cc3ccc(S(C)(=O)=O)cc3)C3CCC4=CC(=O)CCC4=C32)cc1 (some centres undefined) . Reported Affinity?
output: 2
